Test system: SNB-19
Assay: NCI tumour cell line growth inhibition, 48 h
Active and inactive are the calls of the source. Rule as the data show it: active = GI50 up to about 1.1 µM and inactive = higher.
Select the correct class. Options are active, inactive and nothing else.

Task: GET /call?item= `Cc1cc(NC(=O)NC(=O)c2ccccc2N)ccc1Oc1ncc(Br)cn1` returns the recorded outcome of this test.
Output: active

Task: In this assay, the call recorded for CC(C)(C)OC(=O)NC(Cc1c[nH]cn1)C(=O)N1CCCC1C(N)=O (configuration not stated) was what?
Output: inactive

Task: Given `C=C(/C=C/C=C(\C)CCC=C(C)C)[C@@H]1CC[C@]2([C@H](CCCO)/C(=C(/C)C=O)CC[C@]2(C)O)[C@@H]1O` , state the outcome it received in this test.
Output: inactive

Task: Could you kindly confirm the outcome this assay logged for `CN(C(=O)Cc1ccc(Cl)c(Cl)c1)[C@H]1CCCC[C@@H]1[N+]1(C)CCCC1` ?
Output: inactive

Task: Please share the test call associated with `NC1=C(Br)C(=O)c2ncccc2C1=O` .
Output: inactive

Task: GET /call?item= `COC(OC)(c1ccccc1)C(I)I` returns the recorded outcome of this test.
Output: inactive

Task: Hey, what did the test say about `COC(=O)[C@H](Cc1ccccc1)NC(=O)c1ccc(CNC(=O)/C=C/c2ccc(-c3ccccc3)cc2)cc1` ?
Output: inactive

---

What GI50 was measured for each of the following?
System: SF-539
Assay: NCI tumour cell line growth inhibition, 48 h
Activity calls are given as the source filed them. Cut-off read from the data, not from the text of the source: active = GI50 up to about 1.1 µM and inactive = higher.

Task: Reported GI50, molecule `O=C(/C=C\c1ccccc1)Oc1ccc(/C=C2\CCC/C(=C\c3ccc(OC(=O)/C=C\c4ccccc4)cc3)C2=O)cc1` : ____
Output: > 100 µM (inactive)

Task: // GI50 lookup, key: O=c1[nH]c(=O)n([C@@H]2O[C@H](CO)[C@@H](O)[C@@H]2F)cc1I [FIALURIDINE]
Output: > 100 µM (inactive)

Task: What measured GI50 goes with O=C(O)C1OC(n2cc(F)c(=O)[nH]c2=O)CC1O (stereo not drawn) ?
Output: 1.87 µM (inactive)

Task: Query (molecule): `Nc1ccc([C@H]2C(=O)N[C@H]3CCC[C@H]32)cc1` ; field requested: GI50
Output: > 100 µM (inactive)

Task: # lookup: GI50 of `C/C=C1\NC(=O)[C@H](Cc2ccccc2)NC(=O)[C@@H](C(C)C)NC(=O)[C@@H]([C@@H](C)CC)NC(=O)[C@H](NC(=O)[C@H](NC(=O)[C@H](CCCN)NC(=O)[C@H]2CCCN2C(=O)[C@H](NC(=O)[C@@H](NC(=O)[C@@H](NC(=O)[C@H](NC(=O)CCCC(C)C)C(C)C)[C@@H](C)O)C(C)C)C(C)C)[C@@H](C)CC)[C@@H](C)OC(=O)[C@H](C(C)C)NC1=O`
Output: 1.69 µM (inactive)

Task: Reported GI50, molecule C[C@@]1(O)C2CC3CC1(c1ccccc1)CC(/C3=N/O)/C2=N\O (stereo partly drawn) : ____
Output: > 100 µM (inactive)

Task: Which GI50 is listed for `O=C1Oc2ccccc2C(=O)/C1=C/N1C(=O)N/C(=C\c2ccccc2O)C1=O` ?
Output: 59.8 µM (inactive)

Task: Give its GI50 value. Item: C/C(=C\CSCC(N)C(=O)O)CC/C=C(\C)CNc1ccccc1 (stereo not drawn)
Output: > 100 µM (inactive)

Task: So what's the measured GI50 for this one? `O=Cc1c(O)c(C(=O)Nc2ccc3[nH]c(=O)[nH]c3c2)cc2ccccc12`
Output: > 100 µM (inactive)

Task: Using the record for `C=C(/C=C/C=C(\C)CCC=C(C)C)[C@@H]1CC[C@]2([C@H](CCCO)/C(=C(/C)C=O)CC[C@]2(C)O)[C@@H]1O` , report its GI50.
Output: 12.6 µM (inactive)

Task: Recorded GI50 for `CC(=O)n1c(COS(C)(=O)=O)nc2ccccc21` , please?
Output: > 100 µM (inactive)

Task: Name the recorded GI50 for `COc1cc(O)c2c(=O)c3c(C)cccc3n(C)c2c1` .
Output: > 10 µM (inactive)

Task: I would be grateful if you could share the reported GI50 for `CCOC(=O)C(=O)Nc1c(C)cccc1C(C)(C)C` .
Output: > 100 µM (inactive)
